- System: RPMI-8226 leukemia
- procedure.text: NCI tumour cell line growth inhibition, 48 h; in the data active = GI50 below about 0.43 µM; inactive = the rest
# valid calls are active, inactive; nothing else

Reference set, count: 3
COC(=O)[C@@]1(Cc2ccccc2)[C@H]2c3cc(C(=O)N4CCCC4)n(Cc4ccc(OC)c(OC)c4)c3C[C@H]2CN1C(=O)c1ccccc1	inactive
O=C(CSc1nc2ccccc2nc1-c1ccccc1)Nc1ccc(Cl)cc1	inactive
C/C1=C/C(=O)O[C@@H]2C[C@@H](CC[C@H](C)/C=C\C=C\CC1)O[C@@](O)([C@@H]1CSC(=O)N1CO)C2	active

Prompt line: Status in this test for COc1ccc(-c2nsc3c2NC(=O)CC3c2ccc(F)cc2)cc1 (stereo not given) ?
Response line: inactive

Prompt line: Status in this test for `COc1ccccc1-c1cc(/C=C2\C(=O)Nc3ncc(Br)cc32)cc(Br)c1O` ?
Response line: inactive

====

- Test system: ACHN renal
- procedure.text: NCI tumour cell line growth inhibition, 48 h
experimental.endpoint: TGI

Guide cases for TGI, answers given:
Cc1cc(=O)oc2cc(SC(=O)N(C)C)ccc12	> 100 µM
CC(C)OC(=O)Nc1cccc(Cl)c1	> 100 µM
O=C(CSc1nc2ccccc2nc1-c1ccccc1)Nc1ccc(Cl)cc1	47.1 µM

// each molecule listed below needs its TGI
1. Cc1ccc(-c2cc(-c3ccc(Cl)cc3)nc(/N=C3\C(=O)N(CN4CCOCC4)c4ccccc43)n2)cc1
2. C=C(C)CNC(=S)N(N)c1ccc(OC)cc1
3. Cn1c2c(c3ccccc31)CCN1OCC=C[C@@H](C(=O)O)[C@@H]21
4. COc1ccc(/C=N/n2c(=O)[nH]c3ccccc3c2=O)cc1
5. C=C1[C@H](OC(=O)C(C)C)[C@@H](OC(C)=O)[C@@H](OC(C)=O)C(C)(C)[C@@H]2O[C@H]2[C@@H](C)C(=O)[C@@]2(OC(C)=O)C[C@@](C)(OC(C)=O)[C@H](OC(C)=O)[C@@H]2[C@H]1OC(C)=O

Response line:
["63.8 µM", "> 100 µM", "> 100 µM", "> 100 µM", "> 100 µM"]

// each molecule listed below needs its TGI
1. CC(C)(C)N1C(=O)c2ccccc2C1(O)C(F)(F)F (stereo unspecified)
2. O=C(/C=C/c1ccc(O)c(O)c1)OCc1ccccc1
3. Cc1nc2c(O)cc3c4c(=O)n(C)c(=O)n(C)c4n(Cc4ccccc4)c3c2nc1C
4. COc1ccc2c(c1O)C(=O)C(CCC(=O)O)CC2 (stereo unspecified)
5. COc1cc2c3c(c4ccc(OC)c(OC)c4c2cc1OC)CN1CCC[C@@H]1C3
6. COc1ccc(CC2c3cc(OC)c(OC)c(OC)c3CC[N+]2(C)C)cc1Oc1ccc(CC2c3cc4c(c(OC)c3CC[N+]2(C)C)OCO4)cc1 (stereo unspecified)
7. Cc1n[n+](CC(=O)c2ccccc2)c2sc(N)nn12
8. O=C1Nc2cc(Cl)ccc2N=CC1NC(=O)C(c1ccccc1)c1ccccc1Cl (stereo unspecified)

Response line:
> 100 µM
40.7 µM
31.7 µM
> 100 µM
3.55 µM
> 100 µM
> 100 µM
> 100 µM

====

- System: OVCAR-8 ovarian
- procedure.text: NCI tumour cell line growth inhibition, 48 h
Provide the reported TGI of each item.

CCSC1=N/C(=C\c2ccco2)C(NN)=N1	> 50 µM
CC1=C(C)CC(C#N)(C#N)C(C#N)(C#N)C1	> 9.66 µM
NC(=O)C1c2ccccc2C=Cc2ccccc21	> 100 µM
Cc1c(-c2ccccc2)c(=O)oc2ccc(Cl)cc12	> 100 µM

Next up:
Prompt line: In one line, give reported TGI of the entry `N=c1oc2c(Br)cc(Br)cc2cc1C(=O)Nc1ccccn1` .
Response line: > 100 µM
